src = patent US20250051319A1

Measured IC50 values are reported for all entries that follow.
target: catalytic domain 2 (CD2) of HDAC6 (Homo sapiens (Human), UniProt Q9UBN7); assay: Cellular target engagement assay - NanoBRET; conditions: NanoLuc-HDAC6(CD2) in HEK293T cells, 2 hours, read-out: IC50 (HDAC6(CD2) interaction)
Sequence (Q9UBN7 482-800): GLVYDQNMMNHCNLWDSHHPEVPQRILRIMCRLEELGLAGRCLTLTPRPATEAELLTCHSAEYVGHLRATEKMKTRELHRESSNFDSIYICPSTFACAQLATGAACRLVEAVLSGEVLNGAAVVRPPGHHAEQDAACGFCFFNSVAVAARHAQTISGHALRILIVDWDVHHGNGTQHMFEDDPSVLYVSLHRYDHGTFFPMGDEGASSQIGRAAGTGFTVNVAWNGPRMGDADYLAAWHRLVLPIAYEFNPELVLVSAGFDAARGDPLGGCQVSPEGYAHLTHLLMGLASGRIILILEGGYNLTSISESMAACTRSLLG

CCOc1cnc2nc(C)nc(SCC(=O)c3ccc(CNC(=O)CO)s3)c2c1
≤ 100 nM
CC(=O)NCCc1ccc(C(=O)CSc2nc(C3CC3)nc3ccccc23)s1
100 to 500 nM
Cc1nc(SCC(=O)c2ccc(CNC(=O)CO)s2)c2cc(C(F)(F)F)cnc2n1
≤ 100 nM
C[C@H](NC(=O)CO)c1ccc(C(=O)CSc2nc(C(F)(F)F)nc3c2cnn3C)s1
100 to 500 nM
O=C(CSc1nc(C(F)(F)F)nc2nn(C3CC3)cc12)c1ccc(CNC(=O)C(F)(F)C(F)(F)F)s1
100 to 500 nM
CC(C)(C)C(=O)NCCc1ccc(C(=O)CSc2nc(C(F)(F)F)nc3ccccc23)s1
100 to 500 nM

Query COc1ccc2nc(C)nc(SCC(=O)c3ccc(CN4CCC(O)C4=O)s3)c2c1 (stereo not shown) yields IC50 of 100 to 500 nM

Query `O=C(CO)NCc1ccc(C(=O)CSc2nc3ncc(C(F)(F)F)cc3o2)s1` yields IC50 of ≤ 100 nM

Query `Cc1nc(SCC(=O)c2ccc(CNC(=O)C(C)(C)C)s2)c2cccnc2n1` yields IC50 of ≤ 100 nM

Query `Cn1ncc2c(SCC(=O)c3ccc(CNS(=O)(=O)Cc4ccccc4)s3)ncnc21` yields IC50 of 1000 to 10000 nM

Query `COc1ccc2nc(C)nc(SCC(=O)c3ccc(CNC(=O)CO)s3)c2c1` yields IC50 of ≤ 100 nM

----------
target: catalytic domain 2 (CD2) of HDAC6 (Homo sapiens (Human), UniProt Q9UBN7); assay: Cellular target engagement assay - NanoBRET; conditions: NanoLuc-HDAC6(CD2) in HEK293T cells, 2 hours, read-out: IC50 (HDAC6(CD2) interaction)
pIC50: −log10 of the molar value.
Quantity: pIC50

Before answering, review these 5 worked examples.
Cc1nc(SCC(=O)c2ccc(CNC(=O)CO)s2)c2cc(C(F)(F)F)ccc2n1
≥ 7.00
CN(Cc1ccc(C(=O)CSc2ncnc3c2cnn3C)s1)S(=O)(=O)Cc1ccncc1
6.30 to 7.00
COc1cnc2nc(C)nc(SCC(=O)c3ccc(CN(C)C(=O)CO)s3)c2c1
6.30 to 7.00
CCOc1ccc2nc(C)nc(SCC(=O)c3ccc(CNC(=O)CO)s3)c2c1
≥ 7.00
Cc1nc(SCC(=O)c2ccc(CNC(=O)CO)s2)c2cc(Cl)cc(F)c2n1
≥ 7.00

The compound `CC(C)(C)C(=O)NCc1ccc(C(=O)CSc2nc(C3CCC3)nc3ccccc23)s1` on catalytic domain 2 (CD2) of HDAC6 (Homo sapiens (Human), UniProt Q9UBN7): pIC50 was 6.30 to 7.00

The compound `Cn1cc2c(SCC(=O)c3ccc(CNC(=O)C4(O)CC4)s3)nc(C(F)(F)F)nc2n1` on catalytic domain 2 (CD2) of HDAC6 (Homo sapiens (Human), UniProt Q9UBN7): pIC50 was ≥ 7.00

The compound `Cn1ncc2c(SCC(=O)c3ccc(CNC(=O)C(C)(C)O)s3)ncnc21` on catalytic domain 2 (CD2) of HDAC6 (Homo sapiens (Human), UniProt Q9UBN7): pIC50 was 6.00 to 6.30

----------
target: catalytic domain 2 (CD2) of HDAC6 (Homo sapiens (Human), UniProt Q9UBN7); assay: Cellular target engagement assay - NanoBRET; conditions: NanoLuc-HDAC6(CD2) in HEK293T cells, 2 hours, read-out: IC50 (HDAC6(CD2) interaction)
pIC50: −log10 of the molar value.
Measured pIC50 values are reported for all entries that follow.

Before answering, review these 8 worked examples.
Cc1cc2nc(C(F)(F)F)nc(SCC(=O)c3ccc(CNC(=O)CO)s3)n2n1
6.30 to 7.00
COc1ccc2nc(C)nc(SCC(=O)c3ccc(CNC(=O)C4CC4(F)F)s3)c2c1 (stereo not drawn)
6.00 to 6.30
CN(Cc1ccc(C(=O)CSc2ncnc3c2cnn3C)s1)C(=O)C(C)(C)C
6.30 to 7.00
CS(=O)(=O)NCCc1ccc(C(=O)CSc2nc(C(F)(F)F)nc3ccccc23)s1
≥ 7.00
Cc1nc(SCC(=O)c2ccc(CNC(=O)CO)s2)c2ncccc2n1
≥ 7.00
Cn1ncc2c(SCC(=O)c3ccc(CNC(=O)CO)s3)ncnc21
6.30 to 7.00
Cn1ncc2c(SCC(=O)c3ccc(CN4CCCC4=O)s3)ncnc21
6.30 to 7.00
Cc1nc(SCC(=O)c2ccc(CCNS(C)(=O)=O)s2)c2ccccc2n1
6.30 to 7.00

Let's switch to this compound now.
Query `Cc1nc(SCC(=O)c2ccc(CNC(=O)CO)s2)c2cccnc2n1` yields pIC50 of ≥ 7.00

----------
target: catalytic domain 2 (CD2) of HDAC6 (Homo sapiens (Human)); assay: Cellular target engagement assay - NanoBRET; settings: NanoLuc-HDAC6(CD2) in HEK293T cells, 2 hours, read-out: IC50 (HDAC6(CD2) interaction)
Measured IC50 values are reported for all entries that follow.

Before answering, review these 2 worked examples.
Cc1nc(SCC(=O)c2ccc(CNC(=O)CO)s2)c2cc(N3CCN(C)CC3)ccc2n1
≤ 100 nM
Cc1nc(SCC(=O)c2ccc(CNC(=O)C(C)(C)C)s2)c2ccc(F)cc2n1
100 to 500 nM

Query `Cc1nc(SCC(=O)c2ccc(CNC(=O)C(C)(C)C)s2)c2ccccc2n1` yields IC50 of ≤ 100 nM

Query `O=C(CSc1nc(C(F)(F)F)nc2ncccc12)c1ccc(CN2CCOCC2=O)s1` yields IC50 of ≤ 100 nM

Query CC(NC(=O)CO)c1ccc(C(=O)CSc2nc3cnc(C(F)(F)F)cc3o2)s1 (stereo in doubt) yields IC50 of ≤ 100 nM

Query `CN(C)c1nc(SCC(=O)c2ccc(CNC(=O)C(C)(C)C)s2)c2ccccc2n1` yields IC50 of 100 to 500 nM

Query `O=C(CO)NCc1ccc(C(=O)CSc2nc(C(F)(F)F)nc3cc(C4CC4)nn23)s1` yields IC50 of ≤ 100 nM

Query `CN(Cc1ccc(C(=O)CSc2nc(C(F)(F)F)nc3ncccc23)s1)C(=O)CO` yields IC50 of ≤ 100 nM

Query `Cc1nc(SCC(=O)c2ccc(CNC(=O)CO)s2)c2ccccc2n1` yields IC50 of ≤ 100 nM

----------
molecular target: catalytic domain 2 (CD2) of HDAC6 (Homo sapiens (Human)); experiment: Cellular target engagement assay - NanoBRET; assay type: cell-based; conditions: NanoLuc-HDAC6(CD2) in HEK293T cells, 2 hours, read-out: IC50 (HDAC6(CD2) interaction)
pIC50: −log10 of the molar value.
Measured pIC50 values are reported for all entries that follow.

Query `Cn1ncc2c(SCC(=O)c3ncc(CNC(=O)C(C)(C)C)s3)ncnc21` yields pIC50 of 6.30 to 7.00

----------
molecular target: catalytic domain 2 (CD2) of HDAC6 (Homo sapiens (Human), UniProt Q9UBN7); assay: Cellular target engagement assay - NanoBRET; settings: NanoLuc-HDAC6(CD2) in HEK293T cells, 2 hours, read-out: IC50 (HDAC6(CD2) interaction)
Quantity: IC50

COc1cnc2nc(C)nc(SCC(=O)c3ccc(CNC(=O)OC(C)(C)C)s3)c2c1
0.1 to 0.5 µM

Query `Cc1nc(SCC(=O)c2ccc(CNC(=O)CO)s2)c2cc(F)ccc2n1` yields IC50 of 0.1 to 0.5 µM

Query `CC(=O)NCc1ccc(C(=O)CSc2nc(C(F)(F)F)nc3ccccc23)s1` yields IC50 of ≤ 0.1 µM

Query `CNCC(=O)NCc1ccc(C(=O)CSc2nc(C)nc3ccc(OC)cc23)s1` yields IC50 of 0.1 to 0.5 µM

----------
target: catalytic domain 2 (CD2) of HDAC6 (Homo sapiens (Human), UniProt Q9UBN7); experiment: Cellular target engagement assay - NanoBRET; conditions: NanoLuc-HDAC6(CD2) in HEK293T cells, 2 hours, read-out: IC50 (HDAC6(CD2) interaction)
Quantity: IC50

O=C(CSc1nc(C(F)(F)F)nc2ncccc12)c1ccc(CNS(=O)(=O)CC(F)(F)F)s1 [Compound 123]
≤ 100 nM

Query O=C(CO)NCc1ccc(C(=O)CSc2nccn3cncc23)s1 [Example 181] yields IC50 of 100 to 500 nM

----------
molecular target: catalytic domain 2 (CD2) of HDAC6 (Homo sapiens (Human), UniProt Q9UBN7); assay: Cellular target engagement assay - NanoBRET; settings: NanoLuc-HDAC6(CD2) in HEK293T cells, 2 hours, read-out: IC50 (HDAC6(CD2) interaction)
Quantity: IC50

Before answering, review these 2 worked examples.
Cn1cc2c(SCC(=O)c3ccc(CNC(=O)C(C)(C)C)s3)nc(C(F)(F)F)nc2n1
≤ 100 nM
Cn1cc2c(SCC(=O)c3ccc(CNC(=O)C(C)(C)O)s3)nc(C(F)(F)F)nc2n1
≤ 100 nM

The molecule CS(=O)(=O)N1CCC(c2ccc(C(=O)CSc3nc(C(F)(F)F)nc4ccccc34)s2)C1 (stereo not shown) on catalytic domain 2 (CD2) of HDAC6 (Homo sapiens (Human), UniProt Q9UBN7): IC50 was 100 to 500 nM

The molecule `Cc1nc(SCC(=O)c2ccc(CNC(=O)CO)s2)c2cc(OC(F)(F)F)ccc2n1` on catalytic domain 2 (CD2) of HDAC6 (Homo sapiens (Human), UniProt Q9UBN7): IC50 was ≤ 100 nM
